All values here come from patent US20210340238A1.

testedSystem: Matrix-associated proTGFβ1
assayComment: MSD-SET binding, ECM average of hLTBP1 and hLTBP3 complexes
Design: species or system human
conditionSet: average KD of (B) and (C), read-out: (D) ECM AVRG
assayReadout: Kd (pM)
Respond numerically; units are pM and should not be typed.

### Prompt # input molecule: Ab12: monoclonal antibody binding proTGFβ1 complexes; VH SEQ ID NO: 212, VL SEQ ID NO: 15 (antibody, V domains shown) VH: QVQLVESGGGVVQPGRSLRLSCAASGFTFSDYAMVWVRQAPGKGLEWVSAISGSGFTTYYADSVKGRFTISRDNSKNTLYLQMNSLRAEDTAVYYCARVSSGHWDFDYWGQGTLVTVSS VL: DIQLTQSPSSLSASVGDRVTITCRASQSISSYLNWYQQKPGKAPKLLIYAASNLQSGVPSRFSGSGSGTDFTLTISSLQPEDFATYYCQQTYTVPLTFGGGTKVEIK ; wanted: its Kd
### Response 720

### Prompt Please give the result for Ab20: monoclonal antibody binding proTGFβ1 complexes; VH SEQ ID NO: 236, VL SEQ ID NO: 15 (antibody, V domains shown) VH: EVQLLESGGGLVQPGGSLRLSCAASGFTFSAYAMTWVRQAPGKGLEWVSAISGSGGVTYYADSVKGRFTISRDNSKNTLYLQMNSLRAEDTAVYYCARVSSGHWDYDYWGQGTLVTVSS VL: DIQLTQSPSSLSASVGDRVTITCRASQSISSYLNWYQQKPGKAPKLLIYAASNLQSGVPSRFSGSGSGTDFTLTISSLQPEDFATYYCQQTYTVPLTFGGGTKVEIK too.
### Response 200

### Prompt Please give the result for Ab2: isoform-selective inhibitor of TGFβ1 activation; VH SEQ ID NO: 13, VL SEQ ID NO: 15; human IgG4 (antibody, V domains shown, human IgG4 constant regions) VH: EVQLLESGGGLVQPGGSLRLSCAASGFTFADYAMTWVRQAPGKGLEWVSAISGSGAATYFADSVKGRFTISRDNSKNTLYLQMNSLRAEDTAVYYCARVSSGHWDFDYWGQGTLVTVSS VL: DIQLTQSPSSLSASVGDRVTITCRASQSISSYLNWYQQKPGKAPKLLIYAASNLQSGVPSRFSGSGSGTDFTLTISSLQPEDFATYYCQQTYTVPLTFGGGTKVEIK too.
### Response 266
